This collection of values is drawn from patent US12692269B2.

- tested.on: TEAD1 TAZ (amino acids 13-57) (Homo sapiens)
- Sequence (P28347 167-426 limits assumed): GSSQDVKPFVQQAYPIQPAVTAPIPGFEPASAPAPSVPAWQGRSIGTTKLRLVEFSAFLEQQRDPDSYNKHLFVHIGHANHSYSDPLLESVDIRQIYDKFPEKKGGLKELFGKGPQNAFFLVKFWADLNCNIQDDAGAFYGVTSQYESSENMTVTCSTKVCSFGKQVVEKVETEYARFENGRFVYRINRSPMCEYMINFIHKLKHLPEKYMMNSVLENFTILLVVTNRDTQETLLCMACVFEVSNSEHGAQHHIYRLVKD
- experiment.summary: TEAD1-TAZ HTRF (TR-FRET) protein-protein interaction assay
- Assay type: binding
- condition.parameters: TEAD1, TAZ peptide, HTRF
attribute.measured: TEAD1 TAZ HTRF combined: Max % Inhibition (%)

C[C@H]1[C@@H](CF)CN1C(=O)c1c(-c2cnccn2)nn2c(=O)cc(-c3ccc(C4CCCCC4)cc3)[nH]c12 (single isomer, unassigned) [Isomer A, Example 39]; 69.5
CCCCc1ccc(-c2cc(=O)n3nc(-c4nccnc4C)c(C(=O)N4CC(CF)C4)c3[nH]2)cc1; 70.5
O=C(c1c(-c2cnccn2)nn2c(=O)cc(-c3ccc(C4CCCCC4)c(F)c3)[nH]c12)N1CC(CF)C1; 61.5
COc1nccnc1-c1nn2c(=O)cc(-c3ccc(C4CCCCC4)cc3)[nH]c2c1C(=O)N1CC(CF)C1; 66.5
CC(C)(C)c1ccc(COc2cc(=O)n3nc(-c4cnccn4)c(C(=O)N4CC(CF)C4)c3[nH]2)cc1; 62.5
C[C@@H]1[C@H](CF)CN1C(=O)c1c(-c2ncccn2)nn2c(=O)cc(-c3ccc(CC4CCCC4)cc3)[nH]c12 (single isomer, unassigned) [Isomer B, Example 43]; 60.0
Cc1nccnc1-c1nn2c(=O)cc(-c3ccc(C(F)(F)C4CCCC4)cc3)[nH]c2c1C(=O)N1CC(CF)C1; 57.0
O=C(c1c(-c2cnccn2)nn2c(=O)cc(-c3ccc(CC4CCCC4)cc3)[nH]c12)N1CC(CF)C1; 52.0
CCCCCCCCCc1cc(=O)n2nc(-c3nccnc3C)c(C(=O)N3C[C@H](CF)[C@@H]3C)c2[nH]1; 52.5
Cc1cncc(-c2nn3c(=O)cc(-c4ccc(C5CCCCC5)cc4)[nH]c3c2C(=O)N2CC(CF)C2)n1; 74.0
CCN(C)C(=O)c1nn2c(=O)cc(-c3ccc(C4CCCCC4)cc3)[nH]c2c1C(=O)N1CC(CF)C1; 59.0
Cc1nccnc1-c1nn2c(=O)cc(-c3ccc(C4(F)CCCCC4)cc3)[nH]c2c1C(=O)N1CC(CF)C1; 65.5
Cc1cnc(-c2nn3c(=O)cc(-c4ccc(C5CCCCC5)cc4)[nH]c3c2C(=O)N2CC(CF)C2)cn1; 70.0
